# Experimental System: PI3K (Homo sapiens, UniProt P42336)
# Sequence (P42336 whole entry): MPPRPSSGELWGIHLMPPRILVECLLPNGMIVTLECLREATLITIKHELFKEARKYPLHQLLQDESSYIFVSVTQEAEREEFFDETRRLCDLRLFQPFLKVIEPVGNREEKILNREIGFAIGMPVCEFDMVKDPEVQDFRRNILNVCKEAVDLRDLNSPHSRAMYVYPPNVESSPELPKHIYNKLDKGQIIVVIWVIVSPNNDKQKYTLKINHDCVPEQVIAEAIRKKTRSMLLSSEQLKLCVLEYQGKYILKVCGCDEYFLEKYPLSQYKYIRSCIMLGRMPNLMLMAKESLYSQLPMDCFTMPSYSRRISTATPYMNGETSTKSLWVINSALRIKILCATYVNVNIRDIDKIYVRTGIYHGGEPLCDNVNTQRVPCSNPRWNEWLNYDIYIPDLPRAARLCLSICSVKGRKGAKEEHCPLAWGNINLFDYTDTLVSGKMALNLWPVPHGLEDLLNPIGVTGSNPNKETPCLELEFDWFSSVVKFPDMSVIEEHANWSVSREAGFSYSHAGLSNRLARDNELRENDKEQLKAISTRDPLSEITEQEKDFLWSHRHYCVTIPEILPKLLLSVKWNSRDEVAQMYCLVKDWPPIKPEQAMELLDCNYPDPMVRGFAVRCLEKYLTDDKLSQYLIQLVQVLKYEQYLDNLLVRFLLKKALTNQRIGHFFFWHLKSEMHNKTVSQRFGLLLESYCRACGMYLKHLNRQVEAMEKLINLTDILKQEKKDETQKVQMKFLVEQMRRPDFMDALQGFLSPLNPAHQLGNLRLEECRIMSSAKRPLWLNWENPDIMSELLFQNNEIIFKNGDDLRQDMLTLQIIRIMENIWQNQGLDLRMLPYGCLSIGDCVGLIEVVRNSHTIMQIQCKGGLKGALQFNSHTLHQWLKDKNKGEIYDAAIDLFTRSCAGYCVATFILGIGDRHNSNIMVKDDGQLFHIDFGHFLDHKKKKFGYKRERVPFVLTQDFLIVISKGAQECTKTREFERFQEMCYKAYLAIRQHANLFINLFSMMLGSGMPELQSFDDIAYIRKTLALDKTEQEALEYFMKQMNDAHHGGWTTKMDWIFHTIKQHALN
# Sequence (P27986 whole entry partner): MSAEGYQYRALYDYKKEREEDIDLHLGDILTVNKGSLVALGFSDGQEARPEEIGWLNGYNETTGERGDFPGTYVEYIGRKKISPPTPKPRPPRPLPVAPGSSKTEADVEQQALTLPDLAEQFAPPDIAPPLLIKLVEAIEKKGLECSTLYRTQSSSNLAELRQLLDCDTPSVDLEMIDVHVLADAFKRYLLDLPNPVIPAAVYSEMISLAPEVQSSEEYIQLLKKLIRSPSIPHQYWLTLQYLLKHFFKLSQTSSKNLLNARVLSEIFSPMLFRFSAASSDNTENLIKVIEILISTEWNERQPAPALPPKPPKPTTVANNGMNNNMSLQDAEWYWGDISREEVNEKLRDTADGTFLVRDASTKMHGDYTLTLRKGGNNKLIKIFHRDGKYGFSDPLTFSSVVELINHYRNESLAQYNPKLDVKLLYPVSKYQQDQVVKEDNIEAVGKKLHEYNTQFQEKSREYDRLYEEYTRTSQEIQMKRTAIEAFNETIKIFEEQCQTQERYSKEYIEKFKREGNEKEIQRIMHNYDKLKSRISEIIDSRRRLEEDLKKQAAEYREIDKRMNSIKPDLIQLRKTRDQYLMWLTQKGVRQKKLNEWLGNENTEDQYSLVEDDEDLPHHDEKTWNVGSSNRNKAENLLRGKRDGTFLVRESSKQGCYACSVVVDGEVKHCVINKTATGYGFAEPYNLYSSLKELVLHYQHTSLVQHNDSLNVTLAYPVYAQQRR
# Protocol Details: Fluorescence polarization assay for PI3K;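 note: PI3K kinase reaction on PIP2 with ATP, 30-60 min, product sensed by GST-GRP with red probe in fluorescence polarization (mP), controls without enzyme and at zero time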
# Format: biochemical
# Stated Conditions: PI3Kα; read-out: PI3Kα IC50
Measured Property: log10(IC50) (log10 of the value in nM)
Would you kindly interpret these values as log10 of IC50 expressed in nM?

Please review the following examples before continuing.
{"Compound": "COC(=O)N1CCC(n2ncc3c(N4CCOC(C)C4)nc(-c4ccc(NC(=O)Nc5cccnc5)cc4)nc32)CC1 (stereo not drawn) [Compound 846]", "log10(IC50)": 1.91}
{"Compound": "CNC(=O)Nc1ccc(-c2nc(N3CCOCC3)c3cnn(C4CCN(C(=O)c5cccnc5C)CC4)c3n2)cc1 [Example 329]", "log10(IC50)": 2.33}
{"Compound": "CNC(=O)Nc1ccc(-c2nc(N3CCOCC3)c3cn[nH]c3n2)cc1 [Example 236]", "log10(IC50)": 2.02}
{"Compound": "COC(=O)N1CCC(n2ncc3c(N4CCOCC4)nc(-c4ccc(NC(=O)NCCO)cc4)nc32)CC1 [Compound 733]", "log10(IC50)": 2.60}
{"Compound": "COc1ccc(CN2CCC(n3ncc4c(N5CCOCC5)nc(-c5ccc6[nH]ccc6c5)nc43)CC2)cn1 [Compound 176]", "log10(IC50)": 2.55}
{"Compound": "c1ccc(CN2CCC(n3ncc4c(N5CCOCC5)nc(-c5ccc6cc[nH]c6c5)nc43)CC2)cc1 [Compound 49]", "log10(IC50)": 3.10}
{"Compound": "CC(=O)Nc1ccc(-c2nc(N3CCOCC3)c3cnn(-c4ccccc4)c3n2)cn1 [Compound 148]", "log10(IC50)": 2.21}
{"Compound": "C=CC(=O)N1CCC(n2ncc3c(N4CCOCC4)nc(-c4ccc(NC(=O)OC)cc4)nc32)CC1 [Compound 702]", "log10(IC50)": 3.30}
{"Compound": "c1cc2cc(-c3nc(N4CCOCC4)c4cnn(C5CCC6(CC5)OCCO6)c4n3)ccc2[nH]1 [Compound 142]", "log10(IC50)": 3.17}
{"Compound": "CCNC(=O)Nc1ccc(-c2nc(N3CCOCC3)c3cnn(C4CCN(Cc5ccccc5)CC4)c3n2)cc1F [Example 349]", "log10(IC50)": 2.69}

Notebook: pull reported log10(IC50) for PI3K (Homo sapiens, UniProt P42336), entry CNCCNC(=O)Nc1ccc(-c2nc(N3CCOCC3)c3cnn(C4CCN(C(=O)c5cccnc5)CC4)c3n2)cc1 [Example 346]
1.65

# repeat for O=C1Cc2cc(-c3nc(N4CCOCC4)c4cnn(-c5ccccc5)c4n3)ccc2N1 [Compound 677]
3.01

Could you do the same for COCCCNC(=O)Nc1ccc(-c2nc(N3CCOCC3)c3cnn(C4CCN(Cc5ccccc5)CC4)c3n2)cc1 [Compound 515] , please?
2.88

Field entry: O=C(c1ccc(Br)nc1)N1CCC(n2ncc3c(N4CCOCC4)nc(-c4ccc5[nH]ccc5c4)nc32)CC1 [Compound 203]
3.06

Subsequent entry: CN/C(=N\c1ccc(-c2nc(N3CCOCC3)c3cnn(C4CCN(C(=O)OC(C)C)CC4)c3n2)cc1)SC [Compound 832]
3.90

* * *

# Experimental System: PI3K (Homo sapiens)
# Protocol Details: Fluorescence polarization assay for PI3K
# Format: biochemical
# Stated Conditions: PI3Kα; read-out: PI3Kα IC50
Measured Property: pIC50
Please note pIC50 is a logarithmic value: minus log10 of concentration in mol/L. Answer with that number alone.

{"Molecule": "CCNC(=O)Nc1cc(F)c(-c2nc(N3CCOCC3)c3cnn(C4CCN(C(=O)c5cccnc5)CC4)c3n2)cc1F [Example 466]", "pIC50": 5.51}
{"Molecule": "CNC(=O)Nc1ccc(-c2nc(N3CCOCC3)c3cnn(C4CCN(C(=O)c5cccc(C(C)=O)c5)CC4)c3n2)cc1 [Example 423]", "pIC50": 7.08}
{"Molecule": "c1ccc(CN2CCC(n3ncc4c(N5CCOCC5)nc(-c5ccn[nH]5)nc43)CC2)cc1 [Compound 188]", "pIC50": 5.52}

Lab note: next molecule to report on.
Given the entry CCOC(=O)Nc1ccc(-c2nc(N3CCOCC3)c3cnn(C4CCN(Cc5ccccc5)CC4)c3n2)cc1 [Compound 207] , what pIC50 was observed with PI3K (Homo sapiens)?
6.18
